# target-system: T1, CD134 expressed on the cell surface of HT1080_OX40 cells (human, UniProt P43489 29-277)
# T1 sequence (looked up): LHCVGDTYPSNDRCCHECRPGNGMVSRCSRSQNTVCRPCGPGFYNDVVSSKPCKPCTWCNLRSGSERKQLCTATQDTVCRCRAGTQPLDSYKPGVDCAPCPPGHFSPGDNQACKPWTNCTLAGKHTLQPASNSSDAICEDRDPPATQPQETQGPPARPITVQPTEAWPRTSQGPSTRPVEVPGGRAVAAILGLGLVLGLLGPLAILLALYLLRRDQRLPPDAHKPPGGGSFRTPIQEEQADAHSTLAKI
# method-description: cell-based or functional assay
So I've got a bunch of binders here, and I need their EC 50 (IL-8 release, cross-linked) values.

Past entries and their recorded results:
{"columns": ["binder", "EC 50 (IL-8 release, cross-linked)"],
 "data": [
  ["P018.S.12.A.C01 (antibody, V domains shown, V regions on human Ig constant parts; also called AB134_61) VH: QEQLKESGGGLVTPGGTLTLTCTASGFTFSSHAMGWVRQAPGKGLEWIGKIYDDGTTFYANWAKGRFTISRTSTTVDLKMTSLTTEDTATYFCLRGYNSGFNFWGQGTLVTVSS VL: AQVLTQTPASVSAAVGGTVTISCQSSESVYNNNFLAWYQQKPGQPPKLLIYLASTLASGVPSRFSGSGSGTEFTLTISDLDSDDAATYYCAGGYDDNVYGFGGGTEVVVK", "0.431 µg/mL"],
  ["P018.S.05.A.G05 (antibody, V domains shown, V regions on human Ig constant parts; also called AB134_18) VH: QSVEESGGRLVTPGTPLTLTCTVSGIDLSNHGMGWFRQGPGKGLEWIGIIYIDGGASYASWVNGRFTISKTSTTVDLKITSPTTEDTATYFCARGIPSDGDSSYYYFNLWGQGTLVTVAS VL: DVVMTQTPASVEAAVGGTVTIKCQASQSVYNKYLSWFQQKPGQPPKLLIYRASTLESGVSSRFKGSGSGTEFTLTISDLESADAATYYCQNNNGAGDNTDYTFGGGTEVVVK", "0.975 µg/mL"]
]}

Please go through the list and note EC 50 (IL-8 release, cross-linked) for each binder.
1. P018.S.11.A.G03 (antibody, V domains shown, V regions on human Ig constant parts; also called AB134_43) VH: QSLEESGGRLVTPGTPLTLTCTASGFSLTNYAMNWVRQAPGKGLEWIGFINYDGNTYYANWAKGRFTISRTSTTVDLKITSPTTEDTATYFCARGGDGYTHIPDTFDPWGPGTLVTVSS VL: AFEMTQTPSSVSVAVGGTVTIKCQASQSIYSYLSWYQQKPGQPPKLLIYYASTLASGVPSRFVGSGSGTQFTLTISGVESADAATYYCQQGYSYSNIDNVFGGGTEMVVK
2. P018.S.04.A.A06 (antibody, V domains shown, V regions on human Ig constant parts; also called AB134_5) VH: QSLEESGGRLVTPGTPLTLTCTVSGFSLHNYNIQWVRQAPGKGLEWIGWILTDGSPYCANWAKGRFTISKTSTTVDLKITSPTIEDTATYFCARMGDYNINGLWGPGTLVTVSS VL: AQVLTQTPSSVSAAVGGTVTINCQSSQRIYNNDFLSWYQQKPGQPPKLLIYAASTLASGVPSRFKGSGSGTQFTLTISDLESDDAATYYCQGGYSSSGWYLPFGGGTEVVVK

Result block:
0.894 µg/mL
0.63 µg/mL

Source: patent US20210253725A1
